Target: Histone deacetylase
Test: Inhibition of HDAC in HeLa cells by fluorescent activity assay
Type: cell-based, Homo sapiens
Settings: read-out: IC50
Readout Label: IC50

Q: Quick check: IC50 of O=C(CCC1=CCCN(Cc2ccccc2)C1=O)NO ?
Result: 670 nM

***
Q: Quick check: IC50 of C=CCN1CCC=C(CCC(=O)NO)C1=O ?
Result: 4270 nM

Q: Quick check: IC50 of O=C(CCC1=CCCN(CCc2ccccc2)C1=O)NO ?
Result: 350 nM

Q: Quick check: IC50 of COc1ccc(CN2CCC=C(CCC(=O)NO)C2=O)c(OC)c1 ?
Result: 500 nM

Cited source: ChEMBL document CHEMBL1143660
